The origin of these recorded values is patent US20190359687A1.

- measurement target: T1, purified human glycophorin A protein (Sigma, cat # G5017) (human, UniProt P02724 20-150)
- T1 construct: mature; also called Sigma hGPA; Sigma GPA
- T1 sequence (looked up): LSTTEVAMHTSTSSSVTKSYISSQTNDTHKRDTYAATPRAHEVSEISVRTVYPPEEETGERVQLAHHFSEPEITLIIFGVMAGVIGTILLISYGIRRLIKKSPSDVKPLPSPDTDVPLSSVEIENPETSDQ
- method summary: ELISA, IgG
metric: EC50 (nM)
Only the number, expressed in nM, is required.

I have this binder here, 6C12B8/H8 (antibody, V domains shown, mouse IgG1/k from hybridoma; also called 6C12 parental; TPP-3422) VH: RVQLQQSGAELARPGASVKMSCKASGYTFTTYTIHWVKQKTGQGLEWIGYINPSSDYTRYNPKFKDKATLTTDKSSSTAYMKLNSLASDDSAVYYCQTGTRDYWGQGTTLTVSS VL: QIVLTQSPPIMSASPGEKVTMTCSAASSVSYIYWFQQKPGTSPKLWIYSTSTLPSGVPTRFSGSGSGTSYSLTISRMEAEDAATYYCHQRNSFPFTFGSGTKLEIR , and I need its recorded EC50.
0.326

Value lookup for EC50; key = Hu6C12-22 (antibody, V domains shown, IgG format; VH.1e + Vk.1b) VH: EVQLVQSGAEVKKPGASVKVSCKASGYTFTTYTIHWVRQAPGQGLEWMGYINPSSDYTRYNPKFKDRVTLTTDTSTSTAYMELRSLRSDDTAVYYCATGTRDYWGQGTTVTVSS VL: DIQLTQSPSFLSASVGDRVTITCSAASSVSYIYWFQQKPGKAPKLLIYSTSTLPSGVPSRFSGSGSGTEYTLTISSLQPEDFATYYCHQRNSFPFTFGQGTKLEIK
0.886

So what's the measured EC50 for this one? Hu6C12-23 (antibody, V domains shown, IgG format; VH.1f + Vk.1b) VH: EVQLVQSGAEVKKPGASVKVSCKASGYTFTTYTIHWVRQAPGQGLEWMGYINPSSDYTRYNPKFKDRVTLTTDTSTSTAYMELRSLRSDDTAVYYCQTGTRDYWGQGTTVTVSS VL: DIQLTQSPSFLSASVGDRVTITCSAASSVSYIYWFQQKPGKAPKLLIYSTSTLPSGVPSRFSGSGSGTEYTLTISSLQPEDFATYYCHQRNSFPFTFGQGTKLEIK
0.374

Which EC50 value is on record for Hu6C12-6 (antibody, V domains shown, IgG format; VH.1f + Vk.1) VH: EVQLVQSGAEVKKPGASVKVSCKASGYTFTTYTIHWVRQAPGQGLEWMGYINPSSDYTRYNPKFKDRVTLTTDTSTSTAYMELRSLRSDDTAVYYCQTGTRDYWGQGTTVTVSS VL: DIQLTQSPSFLSASVGDRVTITCSAASSVSYIYWYQQKPGKAPKLLIYSTSTLPSGVPSRFSGSGSGTEFTLTISSLQPEDFATYYCHQRNSFPFTFGQGTKLEIK ?
3.46

Query: EC50; subject: Hu6C12-24 (antibody, V domains shown, IgG format; VH.1g + Vk.1b) VH: EVQLVQSGAEVKKPGASVKVSCKASGYTFTTYTIHWVRQAPGQGLEWIGYINPSSDYTRYNPKFKDRVTLTTDKSTSTAYMELRSLRSDDTAVYYCQTGTRDYWGQGTTVTVSS VL: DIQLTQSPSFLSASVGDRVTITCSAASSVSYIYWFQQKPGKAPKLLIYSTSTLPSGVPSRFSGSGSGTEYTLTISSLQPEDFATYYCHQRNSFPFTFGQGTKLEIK
0.282

What does the record list as EC50 for Hu6C12-2 (antibody, V domains shown, IgG format; VH.1b + Vk.1) VH: EVQLVQSGAEVKKPGASVKVSCKASGYTFTTYTIHWVRQAPGQGLEWMGYINPSSDYTRYNPKFKDRVTMTTDTSTSTAYMELRSLRSDDTAVYYCATGTRDYWGQGTTVTVSS VL: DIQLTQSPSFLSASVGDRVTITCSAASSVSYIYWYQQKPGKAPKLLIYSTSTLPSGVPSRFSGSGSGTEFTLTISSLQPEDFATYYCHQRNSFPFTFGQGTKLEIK ?
8.65

Please look up its EC50: Hu6C12-15 (antibody, V domains shown, IgG format; VH.1f + Vk.1a) VH: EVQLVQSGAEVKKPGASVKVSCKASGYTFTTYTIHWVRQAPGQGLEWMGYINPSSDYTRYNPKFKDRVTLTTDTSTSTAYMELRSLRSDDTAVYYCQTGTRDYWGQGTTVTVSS VL: DIQLTQSPSFLSASVGDRVTITCSAASSVSYIYWYQQKPGKAPKLLIYSTSTLPSGVPSRFSGSGSGTEYTLTISSLQPEDFATYYCHQRNSFPFTFGQGTKLEIK
9.69

Reported EC50, binder Hu6C12-7 (antibody, V domains shown, IgG format; VH.1g + Vk.1) VH: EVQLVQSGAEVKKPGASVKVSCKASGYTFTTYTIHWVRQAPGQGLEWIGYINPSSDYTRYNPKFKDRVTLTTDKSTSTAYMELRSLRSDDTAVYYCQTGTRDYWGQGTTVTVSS VL: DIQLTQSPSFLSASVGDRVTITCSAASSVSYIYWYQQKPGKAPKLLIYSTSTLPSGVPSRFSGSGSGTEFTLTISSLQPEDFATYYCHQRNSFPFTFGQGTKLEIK : ____
1.78

Param item = Hu6C12-16 (antibody, V domains shown, IgG format; VH.1g + Vk.1a) VH: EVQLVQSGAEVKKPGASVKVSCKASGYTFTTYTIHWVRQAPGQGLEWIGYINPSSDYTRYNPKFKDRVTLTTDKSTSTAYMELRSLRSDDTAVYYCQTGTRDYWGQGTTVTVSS VL: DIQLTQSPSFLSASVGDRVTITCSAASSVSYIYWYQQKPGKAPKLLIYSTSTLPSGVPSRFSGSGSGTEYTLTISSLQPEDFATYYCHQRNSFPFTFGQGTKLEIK ; retrieve measured EC50.
4.8

Any idea what EC50 was measured for Hu6C12-3 (antibody, V domains shown, IgG format; VH.1c + Vk.1) VH: EVQLVQSGAEVKKPGASVKVSCKASGYTFTTYTIHWVRQAPGQGLEWMGYINPSSDYTRYNPKFKDRVTMTTDTSTSTAYMELRSLRSDDTAVYYCQTGTRDYWGQGTTVTVSS VL: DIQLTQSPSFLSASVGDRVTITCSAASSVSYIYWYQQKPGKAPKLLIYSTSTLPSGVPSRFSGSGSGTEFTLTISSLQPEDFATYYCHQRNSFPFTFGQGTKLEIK ?
2.17
